# Percent Effect per record follows
# Test system: Wolbachia pipientis
# Test Method Notes: Anti-Wolbachia Cell-Based Screen
# Type: functional
# Design: scale not given: in the data most compounds retested in dose-response had high values
# Cond: 5 µM
The whole screen tested about 48,000 compounds, of which about 13,000 (27%) showed an effect of 50% or more. This is one part of the list.

Molecule | Output Unit | Percent Effect
Cc1nnc(NC(=O)NCc2ccc(N3CCN(C)CC3)nc2)s1 | % | 5.046
COCC(=O)N1CC2=CC(C)(C)COc3ccc(OC)c(c32)C1 | % | 86.58
COc1cccc(CC2CCCN2CCCC#N)c1 (centres undefined) | % | 4.783
Cc1nnc(N2C[C@H](C(=O)NCc3ccco3)[C@@H]3CCO[C@@H]3C2)s1 | % | 0.8381
CN(C)C(=O)N1C[C@@H](C(=O)NCc2ccco2)C[C@H]2OCC[C@H]21 | % | 111.8
Cc1occc1C(=O)N1C[C@@H](C(=O)NCc2ccco2)C[C@H]2OCC[C@H]21 | % | 100.5
CC(=O)c1ccc(N2CCC3(CC2)CC(=O)N(C)C3)nc1 | % | 9.989
Cc1ccccc1N1CCN(C(=O)c2ccc[nH]2)C(C)C1 (centres undefined) | % | -11.11
CCN(CC)C(=O)c1nnn(-c2ccc(C)cc2)c1C1CC1 | % | -3.028
COCC(=O)N1CCN(C(=O)C2(c3ccc(C)c(OC)c3)CC2)CC1 | % | 8.797
Cn1cc(CC(CNC(=O)Nc2cccc(Cl)c2)C(N)=O)cn1 (centres undefined) | % | 3.636
O=C(NCc1ccco1)[C@@H]1C[C@H]2OCC[C@H]2N(c2ncc(F)cn2)C1 | % | 12.25
Cc1ccc(-n2nnc(C(=O)NC(C)C)c2C2CC2)cc1 | % | 124.2
CNS(=O)(=O)c1cc(C(=O)N2CCCCCC2CC(C)C)co1 (centres undefined) | % | 3.036
Cc1nnc(NC(=O)NCc2ccc(N3CCC(C)CC3)nc2)s1 | % | 109.6
Cc1nnc(NC(=O)NCc2ccc(N3CCOCC3)nc2)s1 | % | 89.19
Cc1occc1C(=O)N1C[C@@H](C(=O)N2CCCCO2)C[C@H]2OCC[C@H]21 | % | -3.518
CCCS(=O)(=O)NC(C)c1cccc(-n2cccn2)c1 (centres undefined) | % | -8.996
CN1C(=O)[C@H]2CC[C@@H]1CN(C(=O)c1nnc3n1CCCCC3)C2 | % | 10.69
COc1ccc2cc(C3CN(C(=O)N(C)C)CCO3)ccc2c1 (centres undefined) | % | 8.393
COc1c(CNCc2ccccc2CO)c(C)nn1C | % | -3.857
Cc1ccc(-n2nnc(C(=O)NCCS(N)(=O)=O)c2C2CC2)cc1 | % | 2.856
O=C(NCc1ccco1)[C@H]1C[C@H]2OCC[C@H]2N(C(=O)c2ccco2)C1 | % | -11.04
COc1c(CNCc2cccnc2N2CCN(C)CC2)c(C)nn1C | % | 102
CCC(O)CN(Cc1cccc(C(=O)N(C)C)c1)c1ccccc1 (centres undefined) | % | 6.575
CC(=O)Nc1nc(C(=O)NCc2ccc(N3CCCCCC3)nc2)cs1 | % | 26.65
O=C(NCC1(CO)CC1)c1nnn(-c2ccc(F)cc2)c1C1CC1 | % | -10.21
CN1CCOC[C@H]1c1nc(C(C)(C)C)c[nH]1 | % | 12.45
c1ccc2c(c1)CN(c1ncnc3c1CCNC3)CCO2 | % | -28.26
OCC1(CCOc2ccccc2)CCCN(c2ccc(Cl)cn2)C1 (centres undefined) | % | 19.44
Cc1cc(C(F)(F)F)nc(C2CCCN2S(C)(=O)=O)n1 (centres undefined) | % | 108.4
Cc1nn(C)c(C)c1C(=O)NCc1cccnc1OC1CCCC1 | % | 2.821
O=C(NCc1ccco1)[C@H]1C[C@H]2OCC[C@H]2N(C(=O)c2ccncc2)C1.O=C(O)C(F)(F)F | % | -2.028
CC(C)C(O)C(=O)N1CCC2(CC1)c1nc[nH]c1CCN2S(C)(=O)=O (centres undefined) | % | -6.881
Cc1cc(N2CCC(C(=O)O)(n3ccc(C(C)(C)C)n3)CC2)nc(N)n1 | % | -17.81
O=C(NCc1ccco1)[C@H]1C[C@H]2OCC[C@H]2N(S(=O)(=O)C2CC2)C1 | % | -11.11
Cc1noc(C)c1CN(C)C(=O)NCCOc1ccc(F)cc1F | % | -11.52
c1ncc2c(n1)CN(Cc1cn3ccsc3n1)CC2 | % | -19.58
Cc1nn(CCO)c(C)c1CNC1CCc2c(Cl)cccc21 (centres undefined) | % | 9.566
CCN1CCCC(c2c(-c3ccccc3)ncn2CCc2c[nH]cn2)C1 (centres undefined) | % | -19.27
Cc1nn(C)c(N(C)C)c1CNCc1cccnc1-n1cncn1.Cl | % | 6.556
O=C(NCC1(C(=O)O)CCC1)c1nnn(-c2ccc(F)cc2)c1C1CC1 | % | 4.547
Cc1cccc(CC(=O)Nc2cccnc2N2CCC(CO)CC2)c1 | % | -12.05
Cc1cnn(Cc2cc(F)ccc2F)c1NC(=O)C1CCOCC1 | % | -4.081
